target-system: UniProtKB P32246
procedure-text: calcium flux in CCR1 transfected cells, Method B (Calcium 4 dye, HAMAMATSU FDSS6000)
Assay type: cell-based
setup-conditions: cells stably expressing recombinant CCR1 and G-alpha-16, MIP-1alpha at EC80
result-type: pIC50
Just the number, please; pIC50 means minus log10 of the concentration in mol/L.

Recorded pIC50 of CCC[C@H](NC(=O)N1CCCc2c1cnn2-c1ccc(F)cc1F)c1ccnc(S(C)(=O)=O)c1 [Example 62] , please.
9.00

Recorded pIC50 of CCC[C@H](NC(=O)N1c2cnn(-c3ccc(F)cc3)c2CCC1C)c1cccc(S(C)(=O)=O)n1 (stereo partly drawn) [Example 107] , please.
8.10

Recorded pIC50 of CCC[C@H](NC(=O)N1CC(C(=O)NCCO)Cc2c1cnn2-c1ccc(F)cc1)c1ccnc(S(C)(=O)=O)c1 (stereo partly drawn) [Example 117] , please.
9.00

Recorded pIC50 of CCC[C@H](NC(=O)N1c2cnn(-c3ccc(F)cc3)c2CCC1C(F)(F)F)c1ccc(S(C)(=O)=O)cc1F (stereo partly drawn) [Example 69] , please.
7.96

Recorded pIC50 of CS(=O)(=O)c1cccc(CNC(=O)N2CCCc3c2cnn3-c2ccc(F)cc2)c1 [Example 23] , please.
7.66

Recorded pIC50 of CCC[C@H](NC(=O)N1CCCc2c1cnn2-c1ccc(Cl)cc1)c1ccnc(S(C)(=O)=O)c1 [Example 71] , please.
9.52

Recorded pIC50 of CC[C@H](NC(=O)N1CCCc2c1cnn2-c1ccc(F)cc1)c1cncc(S(C)(=O)=O)c1 [Example 45] , please.
9.22

Recorded pIC50 of CCC[C@H](NC(=O)N1CC(C)(C)Cc2c1cnn2-c1ccc(F)cc1)c1ccnc(S(C)(=O)=O)c1 [Example 103] , please.
9.15

Recorded pIC50 of CCC[C@H](NC(=O)N1c2cnn(-c3ccc(F)cc3)c2CC1C)c1ccnc(S(C)(=O)=O)c1 (stereo partly drawn) [Example 108] , please.
8.05

Recorded pIC50 of C[C@H](NC(=O)N1CCCc2c1cnn2-c1ccc(F)cc1)c1cncc(Br)c1 [Example 41] , please.
8.70

Recorded pIC50 of CCC[C@H](NC(=O)N1c2cnn(-c3ccc(F)cc3)c2CCC1C(F)(F)F)c1ccc(S(C)(=O)=O)c(OC)c1 (stereo partly drawn) [Example 105] , please.
8.30

Recorded pIC50 of CNS(=O)(=O)c1ccc(CNC(=O)N2CCCc3c2cnn3-c2ccc(F)cc2)cc1 [Example 22] , please.
8.30

Recorded pIC50 of CC[C@H](NC(=O)N1CCCc2c1cnn2-c1ccc(F)cc1)c1ccc(Br)nc1 [Example 48] , please.
8.70

Recorded pIC50 of CS(=O)(=O)c1ccc(CNC(=O)N2CCCc3c2cnn3-c2ccc(F)cc2)cc1O [Example 43] , please.
7.60

Recorded pIC50 of CCC[C@H](NC(=O)N1c2cnn(-c3ccc(F)cc3)c2CCC1C)c1ccnc(S(C)(=O)=O)c1 (single isomer, unassigned) [Example 80] , please.
7.51

---

For each of the molecules below, state its IC50.
target-system: CCR1 (Homo sapiens, UniProt P32246)
procedure-text: calcium flux in CCR1 transfected cells, Method B (Calcium 4 dye, HAMAMATSU FDSS6000)
Format: cell-based
setup-conditions: cells stably expressing recombinant CCR1 and G-alpha-16, MIP-1alpha at EC80
Number only, in nM; omit the unit.

Recorded IC50 of O=C(NCc1ccc(S(=O)(=O)N2CCOCC2)cc1)N1CCCc2c1cnn2-c1ccc(F)cc1 , please.
68

Recorded IC50 of CS(=O)(=O)c1cc(C2(NC(=O)N3c4cnn(-c5ccc(F)cc5)c4CCC3C(F)(F)F)CC2)ccn1 (stereo not shown) , please.
1850

Recorded IC50 of O=C(NCc1ccccc1Cl)N1CCCc2c1cnn2-c1ccc(F)cc1 , please.
138

Recorded IC50 of CC[C@H](NC(=O)N1c2cnn(-c3ccc(F)cc3)c2CC1C)c1cccc(S(C)(=O)=O)c1 (stereo partly shown) , please.
11

---

For each of the molecules below, state its IC50.
target-system: CCR1 (Homo sapiens)
procedure-text: calcium flux in CCR1 transfected cells, Method A (Fluo-4 NW, FLIPR TETRA)
Format: cell-based
setup-conditions: cells stably expressing recombinant CCR1 and G-alpha-16, MIP-1 alpha at EC80
Number only, in nM; omit the unit.

Recorded IC50 of CC[C@H](NC(=O)N1CCCc2c1cnn2-c1ccc(F)cc1)c1ccc(S(C)(=O)=O)nc1 , please.
14

Recorded IC50 of CCC[C@H](NC(=O)N1CCCc2c1cnn2-c1ccc(F)cc1)c1cncc(S(C)(=O)=O)c1 , please.
0.4

Recorded IC50 of CC[C@H](NC(=O)N1c2cnn(-c3ccc(F)cc3)c2CCC1C)c1ccnc(S(C)(=O)=O)c1 (some centres unmarked) , please.
13

Recorded IC50 of CCC[C@H](NC(=O)N1CCCc2c1cnn2-c1ccc(F)cc1)c1ccc(Br)nc1 , please.
12

Recorded IC50 of COCCNS(=O)(=O)c1ccc(CNC(=O)N2CCCc3c2cnn3-c2ccc(F)cc2)cc1 , please.
6

Recorded IC50 of CCCC(NC(=O)N1CCCc2c1cnn2-c1ccc(F)cc1)c1cncc(Br)c1 (centres unmarked) , please.
0.2

Recorded IC50 of CCC[C@H](NC(=O)N1CCCc2c1cnn2-c1ccc(F)cc1)c1ccc(S(C)(=O)=O)nc1 , please.
4

Recorded IC50 of CNS(=O)(=O)c1ccc(CNC(=O)N2CCCc3c2cnn3-c2ccc(F)cc2)c(Cl)c1 , please.
3

---

target-system: CCR1 (Homo sapiens)
Sequence (P32246 1-355): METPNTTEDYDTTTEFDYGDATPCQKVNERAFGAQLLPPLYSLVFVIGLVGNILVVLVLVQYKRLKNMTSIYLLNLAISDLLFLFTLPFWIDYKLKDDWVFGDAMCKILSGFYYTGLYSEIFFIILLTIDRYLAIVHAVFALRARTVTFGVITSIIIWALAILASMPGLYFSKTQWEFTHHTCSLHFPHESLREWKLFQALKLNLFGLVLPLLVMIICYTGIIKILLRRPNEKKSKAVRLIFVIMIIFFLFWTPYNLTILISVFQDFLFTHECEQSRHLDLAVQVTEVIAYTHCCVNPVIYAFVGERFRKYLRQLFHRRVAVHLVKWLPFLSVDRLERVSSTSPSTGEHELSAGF
procedure-text: calcium flux in CCR1 transfected cells, Method B (Calcium 4 dye, HAMAMATSU FDSS6000)
Type: cell-based
setup-conditions: cells stably expressing recombinant CCR1 and G-alpha-16, MIP-1alpha at EC80
result-type: IC50 (nM)
Number only, in nM; omit the unit.

Recorded IC50 of CC[C@H](NC(=O)N1c2cnn(-c3ccc(F)cc3)c2CCC1C(F)(F)F)c1ccc(S(C)(=O)=O)c(O)c1 (stereo partly drawn) [Example 85] , please.
23

Recorded IC50 of CNS(=O)(=O)c1ccc(CNC(=O)N2CCCc3c2cnn3-c2ccc(F)cc2)c(F)c1 [Example 38] , please.
2

Recorded IC50 of C[C@H](NC(=O)N1CCCc2c1cnn2-c1ccc(F)cc1)c1ccc(S(C)(=O)=O)nc1 [Example 52] , please.
128

Recorded IC50 of CCC[C@H](NC(=O)N1CCCc2c1cnn2-c1ccc(F)cc1)c1cncc(S(C)(=O)=O)c1 [Example 47] , please.
0.2

Recorded IC50 of CCC[C@H](NC(=O)N1CC(C(=O)O)Cc2c1cnn2-c1ccc(F)cc1)c1ccnc(S(C)(=O)=O)c1 (stereo partly drawn) [Example 115] , please.
23

Recorded IC50 of CCC[C@H](NC(=O)N1CCCc2c1cnn2-c1ccc(F)cc1)c1ccc(Br)nc1 [Example 49] , please.
2

---

For each of the molecules below, state its IC50.
target-system: CCR1 (Homo sapiens)
procedure-text: calcium flux in CCR1 transfected cells, Method B (Calcium 4 dye, HAMAMATSU FDSS6000)
Format: cell-based
setup-conditions: cells stably expressing recombinant CCR1 and G-alpha-16, MIP-1alpha at EC80
Protocol: Compounds are assessed for the ability to block the interaction of CCR1 and MIP-1α in a functional cellular assay measuring calcium flux in CCR1 transfected cells. Method B: Non-adherent cells purchased from Chemicon Corporation (HTS005C), stably expressing recombinant CCR1 and G-alpha-16 are grown in RPMI 1640 medium (Mediatech 10-080-CM) supplemented with 10% FBS, 0.4 mg/mL Geneticin and penicillin/streptomycin. […] All plates must be read within 4 hours of the start of dye-loading. […]
Number only, in nM; omit the unit.

Find IC50 (CCR1 (Homo sapiens)) for the entry CCC[C@H](NC(=O)N1c2cnn(-c3ccc(F)cc3)c2CCC1C(F)(F)F)c1cc(F)cc(S(C)(=O)=O)c1 (stereo partly drawn) [Example 90]
6

Find IC50 (CCR1 (Homo sapiens)) for the entry O=C(NCc1cccc(F)c1)N1CCCc2c1cnn2-c1ccc(F)cc1 [Example 9]
108

Find IC50 (CCR1 (Homo sapiens)) for the entry CCC[C@H](NC(=O)N1CCCCc2c1cnn2-c1ccc(F)cc1)c1cncc(S(C)(=O)=O)c1 [Example 75]
640
